Data provenance: ChEMBL document CHEMBL4152240

system: CCRF-CEM; experiment: Cytotoxicity against human CCRF-CEM cells assessed as growth inhibition after 72 hrs by MTT assay; type: functional
// NB: equality with 800 nM counts as False; only GI50 strictly below is True

Dear colleague, could you confirm whether GI50 of CN(C)CCCOC(=O)c1c2c(n3cccc(F)c13)C(=O)c1ncccc1C2=O falls below 800 nM? Thanks.
True

Determine if O=C1c2cccnc2C(=O)c2c1c(C(=O)OCCCN1CCOCC1)c1c(Cl)cccn21 shows GI50 strictly lower than 800 nM.
False

Just wondering, is GI50 of CC[C@@]1(O)C(=O)OCc2c1cc1n(c2=O)Cc2cc3ccccc3nc2-1 below 800 nM?
True

I'd appreciate it if you could check whether O=C1c2cccnc2C(=O)c2c1c(C(=O)OCCCN1CCCCC1)c1c(F)cccn21 has GI50 smaller than 800 nM.
True

Does this compound meet the criterion GI50 < 800 nM? O=C1c2cccnc2C(=O)c2c1c(C(=O)OCCN1CCOCC1)c1c(Cl)cccn21
False

Strictly below 800 nM: is that where GI50 of CN1CCN(CCOC(=O)c2c3c(n4cccc(F)c24)C(=O)c2ncccc2C3=O)CC1 sits?
True

I wonder whether O=C1c2nccnc2C(=O)c2c1c(C(=O)OCCN1CCOCC1)c1ccccn21 has GI50 below 800 nM. Can you tell?
False

Please state whether GI50 is below 800 nM for CN(C)CCOC(=O)c1c2c(n3cccc(F)c13)C(=O)c1ncccc1C2=O
False

* * *

biological target: Topoisomerase I (Bos taurus) (UniProt Q2HPH0); assay: Inhibition of calf thymus TOP1-mediated relaxation of supercoiled pBR322 DNA at 25 uM after 30 mins by agarose gel electrophoresis relative to camptothecin
Sequence (Q2HPH0 as listed by the source): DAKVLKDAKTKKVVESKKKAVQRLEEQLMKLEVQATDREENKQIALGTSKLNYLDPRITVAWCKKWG
Measure name: inhibition

Sample O=C1c2cccnc2C(=O)c2c1c(C(=O)OCCN1CCCCC1)c1c(F)cccn21 ; inhibition observed: > 121%

Memo: O=C1c2cccnc2C(=O)c2c1c(C(=O)OCCCN1CCCCC1)c1c(Cl)cccn21 , reported inhibition: 41 to 80%

inhibition measured on O=C1c2cccnc2C(=O)c2c1c(C(=O)OCCCN1CCOCC1)c1c(F)cccn21 = < 40%

# molecule O=C1c2ncccc2C(=O)c2c1c(C(=O)OCCN1CCOCC1)c1ccccn21 ; its inhibition = > 121%

* * *

system: DNA; assay: Induction of unwinding effect of Escherichia coli supercoiled pBR322 DNA at 1 to 9 uM preincubated with DNA for 10 mins followed by excess calf thymus TOP1 addition and measured after 30 mins by agarose gel electrophoresis; assay type: nucleic-acid assay
Active and inactive are the calls of the source. The calls are words filed in the database; no cut-off is given here.
Respond with a class label; see true (active), false (inactive)

Test call for this compound, please: CCOC(=O)c1c2c(n3ccccc13)C(=O)c1ncccc1C2=O
false

Identify the outcome logged in this assay for the compound shown: CN(C)CCCOC(=O)c1c2c(n3cccc(F)c13)C(=O)c1ncccc1C2=O
true

For this compound, state the assay outcome: O=C1c2cccnc2C(=O)c2c1c(C(=O)OCCN1CCCCC1)c1c(Cl)cccn21
true

# lookup: test call for O=C1c2ncccc2C(=O)c2c1c(C(=O)OCCN1CCOCC1)c1ccccn21
false

Which result was noted for this compound in the test: O=C1c2cnncc2C(=O)c2c1c(C(=O)OCCN1CCOCC1)c1ccccn21
false

// param item: O=C1c2cccnc2C(=O)c2c1c(C(=O)OCCN1CCCC1)c1c(F)cccn21 ; yields the recorded call
false

// param item: CCOC(=O)c1c2c(n3ccc(NC(=O)CCN4CCCCC4)cc13)C(=O)c1ncccc1C2=O ; yields the recorded call
false

Please let me know the test result on file for O=C1c2cccnc2C(=O)c2c1c(C(=O)OCCN1CCCCC1)c1c(F)cccn21 .
false

I'd appreciate the recorded outcome for O=C1c2cccnc2C(=O)c2c1c(C(=O)OCCCN1CCCCC1)c1c(F)cccn21 from this test.
false

Each compound tested received a call. Report the one for CCOC(=O)c1c2c(n3ccc(NC(=O)CCN4CCOCC4)cc13)C(=O)c1ncccc1C2=O .
false
